- protocol.description: Systemic clearance after intravenous administration (0.5 mg/kg) was determined in dog
- Assay type: ADME, organism-based, Canis lupus familiaris
- condition.label: in vivo
attribute.measured: clearance (mL/min/kg)
A number alone suffices; assume mL/min/kg.

Noted for "O=C(N[C@H]1c2ccccc2C[C@H]1O)[C@H](Cc1cccc(O)c1)[C@@H](C(=O)NO)C1CCNCC1" : its clearance reads 1.67

* * *

- protocol.description: Half life time after intravenous administration (5.0 mg/kg) was determined in rat
- Assay type: ADME, organism-based
- condition.label: in vivo
attribute.measured: half-life (h)
A number alone suffices; assume h.

Noted for "O=C(N[C@H]1c2ccccc2C[C@H]1O)[C@H](Cc1cccc(O)c1)[C@@H](C(=O)NO)C1CCNCC1" : its half-life reads 4

* * *

- protocol.description: Inhibition of bovine aggrecanase
- Set-up: species or system Bos taurus
attribute.measured: pIC50
# pIC50 = -log10(concentration in molar units)

Worked cases, answers included:
# compound, pIC50
measured = [
    ("CN1CCC([C@H](C(=O)NO)[C@@H](Cc2cccc(O)c2)C(=O)N[C@H]2c3ccccc3C[C@H]2O)CC1", 6.68),
    ("CCC(=O)N1CCC(C[C@H](C(=O)NO)[C@@H](Cc2cccc(O)c2)C(=O)N[C@H]2c3ccccc3C[C@H]2O)CC1", 7.01),
    ("CC(C)(C)OC(=O)N1CCC([C@H](C(=O)NO)[C@@H](Cc2cccc(O)c2)C(=O)N[C@H]2c3ccccc3C[C@H]2O)CC1", 7.72),
    ("CS(=O)(=O)N1CCC([C@H](C(=O)NO)[C@@H](Cc2cccc(O)c2)C(=O)N[C@H]2c3ccccc3C[C@H]2O)CC1", 8.52),
    ("O=C(N[C@H]1c2ccccc2C[C@H]1O)[C@H](Cc1cccc(O)c1)[C@@H](C(=O)NO)C1CCNCC1", 7.55),
]

Noted for CC(=O)N1CCC(CC(C(=O)NO)C(Cc2cccc(O)c2)C(=O)N[C@H]2c3ccccc3C[C@H]2O)CC1 (single isomer, unassigned) : its pIC50 reads 6.94

Noted for "O=C(N[C@H]1c2ccccc2C[C@H]1O)[C@H](Cc1cccc(O)c1)[C@@H](C(=O)NO)C1CNC1" : its pIC50 reads 8.15

Noted for "CCOC(=O)N1CCC([C@H](C(=O)NO)[C@@H](Cc2cccc(O)c2)C(=O)N[C@H]2c3ccccc3C[C@H]2O)CC1" : its pIC50 reads 8.15

Noted for "O=C(NO)[C@@H](NCC1CC1)[C@@H](Cc1cccc(O)c1)C(=O)N[C@H]1c2ccccc2C[C@H]1O" : its pIC50 reads 7.92

Noted for "O=C(N[C@H]1c2ccccc2C[C@H]1O)[C@H](Cc1cccc(O)c1)[C@@H](C(=O)NO)C1CN(C(=O)C(F)(F)F)C1" : its pIC50 reads 8.52

Noted for CC(=O)N1CCC(C(C(=O)NO)C(Cc2cccc(O)c2)C(=O)N[C@H]2c3ccccc3C[C@H]2O)CC1 (single isomer, unassigned) : its pIC50 reads 7.54

Noted for CCN1CCC(C(C(=O)NO)C(Cc2cccc(O)c2)C(=O)N[C@H]2c3ccccc3C[C@H]2O)CC1 (single isomer, unassigned) : its pIC50 reads 7.35

* * *

- protocol.description: Bioavailability after peroral administration (10 mg/kg) was determined in rat
- Assay type: ADME, organism-based
- condition.label: in vivo, po
attribute.measured: bioavailability (%)
A number alone suffices; assume %.

Noted for "O=C(N[C@H]1c2ccccc2C[C@H]1O)[C@H](Cc1cccc(O)c1)[C@@H](C(=O)NO)C1CCNCC1" : its bioavailability reads 1
